Exercise: state measured % inhibition of the Bezold-Jarisch reflex for each of the molecules provided.
Target: 5HT3 receptor (Rattus norvegicus)
Construct: in the anesthetized rat; from tissue; host or cells: whole anesthetized rat (in vivo); endogenous receptor
Assay: Inhibition of the von Bezold-Jarisch chemoreflex evoked by 5-HT in the anesthetized rat (in vivo 5HT3 antagonist activity)
Settings: dose 100 μg/kg i.v., 5-HT 20 ug/kg i.v., mean ± S.E.M., 6 animals, * p < 0.01 vs controls
Response body: numeric value in %, unit text excluded.

Query :: Provide % inhibition of the Bezold-Jarisch reflex value for the following molecule: `O=C1N(Cc2c[nH]cn2)CCN1c1ccccc1`
Result :: 56.1

Query :: Provide % inhibition of the Bezold-Jarisch reflex value for the following molecule: `Cc1[nH]cnc1CN1CCN(c2cccc(C#N)c2)C1=O`
Result :: 87.7

Query :: Provide % inhibition of the Bezold-Jarisch reflex value for the following molecule: `CSc1cccc(N2CCN(Cc3nc[nH]c3C)C2=O)c1`
Result :: 85.8

Query :: Provide % inhibition of the Bezold-Jarisch reflex value for the following molecule: `Cc1cc(C)cc(N2CCN(Cc3nc[nH]c3C)C2=O)c1`
Result :: 88.6

====

Biological target: 5HT3 receptor (Rattus norvegicus, UniProt P35563)
Construct: in the anesthetized rat; from tissue; host or cells: whole anesthetized rat (in vivo); endogenous receptor
Sequence (P35563 24-483): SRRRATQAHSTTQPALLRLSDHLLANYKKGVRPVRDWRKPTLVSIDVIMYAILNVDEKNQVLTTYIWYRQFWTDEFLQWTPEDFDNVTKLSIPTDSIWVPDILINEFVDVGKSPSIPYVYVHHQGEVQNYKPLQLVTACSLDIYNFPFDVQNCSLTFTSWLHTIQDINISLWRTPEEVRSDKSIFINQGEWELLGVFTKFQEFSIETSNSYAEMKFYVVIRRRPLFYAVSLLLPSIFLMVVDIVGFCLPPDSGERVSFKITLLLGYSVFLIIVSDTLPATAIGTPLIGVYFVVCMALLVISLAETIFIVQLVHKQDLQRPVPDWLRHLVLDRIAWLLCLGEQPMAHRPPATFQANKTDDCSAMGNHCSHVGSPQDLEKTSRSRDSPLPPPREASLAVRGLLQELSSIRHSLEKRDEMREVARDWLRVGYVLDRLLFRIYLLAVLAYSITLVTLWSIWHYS
Assay: Inhibition of the von Bezold-Jarisch chemoreflex evoked by 5-HT in the anesthetized rat (in vivo 5HT3 antagonist activity)
Details: dose 10 μg/kg i.v., 5-HT 20 ug/kg i.v., mean ± S.E.M., 6 animals, * p < 0.01 vs controls
Method: Pharmacol. 326, 36-44 (1984). The following Table I reports the in vivo 5HT3 antagonist activity data obtained in this test for a representative group of compounds of the invention. Inhibition of the Bezold-Jarisch reflex elicited by 5-HT (20 ug/kg i.v.) by i.v. FCE-compounds in the anesthetized Values are mean ± S.E.M. from 6 animals. *p < 0.01 vs controls (Dunnett's test).
Quantity: % inhibition of the Bezold-Jarisch reflex (%)
Response body: numeric value in %, unit text excluded.

Query :: Report value: % inhibition of the Bezold-Jarisch reflex, system: 5HT3 receptor (Rattus norvegicus, UniProt P35563), molecule: `Cc1cccc(N2CCN(Cc3nc[nH]c3C)C2=O)c1`
Result :: 83.3

Query :: Report value: % inhibition of the Bezold-Jarisch reflex, system: 5HT3 receptor (Rattus norvegicus, UniProt P35563), molecule: `Cc1[nH]cnc1CN1CCN(c2cccc(C#N)c2)C1=O`
Result :: 14.3

Query :: Report value: % inhibition of the Bezold-Jarisch reflex, system: 5HT3 receptor (Rattus norvegicus, UniProt P35563), molecule: `Cc1[nH]cnc1CN1CCN(c2cccc(Cl)c2)C1=O`
Result :: 89.7

Query :: Report value: % inhibition of the Bezold-Jarisch reflex, system: 5HT3 receptor (Rattus norvegicus, UniProt P35563), molecule: `Cc1[nH]cnc1CN1CCN(c2ccccc2)C1=O`
Result :: 79.4

Query :: Report value: % inhibition of the Bezold-Jarisch reflex, system: 5HT3 receptor (Rattus norvegicus, UniProt P35563), molecule: `Cc1[nH]cnc1CN1CCN(c2cccc(Br)c2)C1=O`
Result :: 64.2

Query :: Report value: % inhibition of the Bezold-Jarisch reflex, system: 5HT3 receptor (Rattus norvegicus, UniProt P35563), molecule: `CSc1cccc(N2CCN(Cc3nc[nH]c3C)C2=O)c1`
Result :: 16.8
